# system: T1, Human VSIG4-S-Fc (human)
# T1 construct: short isoform ECD fused to human Fc1; also called hVSIG4-S
# T1 sequence (chain, as listed by the source limits assumed): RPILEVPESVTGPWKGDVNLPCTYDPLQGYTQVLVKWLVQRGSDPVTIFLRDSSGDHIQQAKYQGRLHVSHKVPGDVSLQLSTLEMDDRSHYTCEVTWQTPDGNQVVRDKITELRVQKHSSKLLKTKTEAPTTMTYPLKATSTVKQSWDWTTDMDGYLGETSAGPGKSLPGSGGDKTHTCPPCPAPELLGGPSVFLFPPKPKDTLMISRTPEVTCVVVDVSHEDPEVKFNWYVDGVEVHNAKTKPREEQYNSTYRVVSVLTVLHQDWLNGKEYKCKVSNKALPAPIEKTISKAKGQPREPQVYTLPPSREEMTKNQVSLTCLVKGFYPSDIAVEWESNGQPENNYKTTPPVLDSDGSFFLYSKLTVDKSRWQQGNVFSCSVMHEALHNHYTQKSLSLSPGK
# experiment-summary: ELISA, IgG 50 nM on coated antigen;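 note: Mouse-human chimeric IgG4 antibodies incubated 1 h on plate-coated VSIG4 proteins, bound IgG detected with HRP-labelled anti-human IgG, irrelevant antibody and protein as specificity controls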
ELISA OD450 listing for selected binders.

binder	ELISA OD450 [OD450]
15C03 mouse/human chimeric IgG4 (S228P) kappa (antibody, V domains shown) VH: EVKLLESGPGLVKPSQSLSLTCTVTGYSITSDYAWNWIRQFPGNKLEWMGYISYSGSTRYNPSLKSRISITRDTSNNQFFLQLNSVTTEDTATYYCARSGYAAMDYWGQGTSVTVSS VL: ENVLTQSPAIMSASPGEKVTMTCRASSSVSSSYLHWYQQKSGASPKLWIYSTSNLASGVPARFSGSGSGTSYSLTISSVEAEDAATYYCQQYSGYPLTFGSGTKLEIKR	3.64
14D12 mouse/human chimeric IgG4 (S228P) kappa (antibody, V domains shown) VH: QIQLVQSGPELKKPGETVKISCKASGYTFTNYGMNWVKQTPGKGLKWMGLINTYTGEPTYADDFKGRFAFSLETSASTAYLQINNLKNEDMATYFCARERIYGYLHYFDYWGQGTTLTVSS VL: DVVMTQTPASLAVSLGQRATISCKASQSVDYDGDSYMNWYQQKPGQPPKLLIYAASNLESGIPARFSGSGSGTDFTLNIHPVEEEDAATYYCQQSNEDPRTFGGGTKLEIKR	3.43
